system: 786-0 renal; assay: NCI-60 one-dose screen, 48 h; details: 10 µM
This is part of a sample that, as a whole, favours compounds with a hit. Of some 83,000 tested, about 20% had one in any assay. The source made the active and inactive calls. How the source made its calls: active means growth percent below 10; inactive means the rest.
Valid outcomes are listed here; reply with one: active, inactive

1) C/C=C/C1=CN2C(=O)c3cc(OC4OC(C)C(NC)C(C)(O)C4O)c(C)c(O)c3N=C[C@@H]2C1 (stereo partly specified); active
2) Nc1nc(-c2ccc(Cl)cc2)cc(-c2cc3ccccc3oc2=O)n1; inactive
3) O=C1/C(=C/c2cccc(F)c2)Cc2ccccc21; inactive
4) Cc1cc(SC#N)cc(C(C)(C)C)c1O; inactive
5) CCOC(=O)c1cc(C(=O)c2cc(OC)c(OC)c(OC)c2)n2c1ccc1c3cccnc3ccc12; inactive
6) Cc1cc(Cl)ccc1Nc1nc(C(F)(F)F)ccc1C(=O)N/N=C/c1cccc(O)c1; active
7) CCCCCCCCCCCC[n+]1c(C)cc(N)c2ccccc21; active
8) Cc1c(C(N)=O)sc2c1c(=O)n(Cc1ccccc1)c1nnc(-c3ccc(Br)cc3)n21; active

Q: Test call for this molecule, please: CCC(CC)n1c(C)cc(=O)n1C(CC)CC
Ans: inactive

Q: Repeat for the following molecule: CCN(CC)CCCC(C)Nc1c2ccc(Cl)cc2nc2ccc(OC)cc12 (stereo unspecified)
Ans: inactive

Q: Repeat for the following molecule: CCNCC(=O)Nc1ccc(C(=O)OCC)cc1
Ans: inactive

---

system: SK-MEL-5 melanoma; experiment: NCI-60 one-dose screen, 48 h; settings: 10 µM
Compounds without any hit were thinned out: in the full panel of roughly 83,000, 20% have a hit. Calls of active or inactive are those of the source. Rule for the calls: active = growth percent below 10; inactive = the rest.
Valid outcomes are listed here; reply with one: 1.0 for active, 0.0 for inactive

1) CC(C)(C)c1ccc(S(=O)(=O)N[C@H]2CC[C@H]3[C@@H]4CCc5cc(OS(=O)(=O)O)ccc5[C@H]4CC[C@]23C)cc1; 0.0
2) COc1cccc(N=Nc2cccc(OC)c2)c1; 0.0
3) Nc1nc(N)c(N)c(Nc2ccc(CCO)cc2)n1; 0.0
4) C=C(NC(=O)C(=C)NC(=O)c1csc(C2=NC3c4csc(n4)C4NC(=O)c5csc(n5)C(C(C)(O)C(C)O)NC(=O)C5CSC(=N5)C(=CC)NC(=O)C(C(C)O)NC(=O)c5csc(n5)C3(CC2)NC(=O)C(C)NC(=O)C(=C)NC(=O)C(C)NC(=O)C(C(C)CC)NC2C=Cc3c(C(C)O)cc(nc3C2O)C(=O)OC4C)n1)C(N)=O (stereo not given); 1.0
5) O=C(Nc1ccc(OCc2nnc(-c3ccc(Cl)cc3)o2)c(F)c1)Nc1ccc(Cl)c(C(F)(F)F)c1; 1.0

Q: Test call for this compound, please: O=S(=O)(O)c1ccc(Cl)cc1
Ans: 0.0

Q: Repeat for the following compound: COc1cc(C(=O)/C=C/c2c[nH]c3ccccc23)cc(OC)c1OC
Ans: 1.0

Q: Repeat for the following compound: CC(=O)C1N=NCC1c1ccccc1 (stereo not given)
Ans: 0.0

Q: Repeat for the following compound: COc1ccc2c(c1)C(CC(=O)NN)CCC2 (stereo not given)
Ans: 0.0

Q: Repeat for the following compound: O=C1C=C(Nc2cccc(Br)c2)c2ccccc2C1=O
Ans: 0.0

Q: Repeat for the following compound: Cc1noc(C)c1CSc1ccccc1C(=O)N1CCN(c2cccc(C(F)(F)F)c2)CC1
Ans: 0.0

Q: Repeat for the following compound: COc1ccc(-c2nn(-c3cccc(Cl)c3)cc2-c2c(C#N)c(=O)n3[nH]c(-c4ccc(C)cc4)nc3c2C#N)cc1
Ans: 0.0

Q: Repeat for the following compound: O=C1c2ccccc2C(=O)c2c1ccc(C(Br)Br)c2Cl
Ans: 0.0

Q: Repeat for the following compound: CC(C)c1ccc(C(C)C(=O)N(CC2=C(C(C)c3ccccn3)c3ccccc3C2)C(C)C)cc1 (stereo not given)
Ans: 0.0

Q: Repeat for the following compound: COc1cccc2ccc(CC(O)(c3ccccc3)c3ccccc3)nc12
Ans: 0.0

Q: Repeat for the following compound: CCn1cc(C(=O)O)c(=O)c2cc(F)c(N3CCNCC3)cc21
Ans: 0.0

Q: Repeat for the following compound: Cc1c[nH]c(=O)n(Cc2nnc(CCC(=O)c3nc4ccccc4[nH]3)o2)c1=O
Ans: 0.0

Q: Repeat for the following compound: C#C[C@]1(O)CCC2C3CCc4cc(OC5CCCC5)ccc4C3CC[C@@]21C (stereo not given in full)
Ans: 0.0

Q: Repeat for the following compound: COc1ccc(C(=O)N/N=C/c2cc(C(F)(F)F)ccc2Cl)cc1
Ans: 0.0

Q: Repeat for the following compound: Cc1cc(SC#N)cc(C(C)(C)C)c1O
Ans: 0.0
